Kindly state log10 IC50 for each of the entries shown.
- Target Or System: glucosylceramide synthase (GCS) (Homo sapiens, UniProt Q16739)
- Construct: The obtained supernatant was used
- Sequence (Q16739 whole entry): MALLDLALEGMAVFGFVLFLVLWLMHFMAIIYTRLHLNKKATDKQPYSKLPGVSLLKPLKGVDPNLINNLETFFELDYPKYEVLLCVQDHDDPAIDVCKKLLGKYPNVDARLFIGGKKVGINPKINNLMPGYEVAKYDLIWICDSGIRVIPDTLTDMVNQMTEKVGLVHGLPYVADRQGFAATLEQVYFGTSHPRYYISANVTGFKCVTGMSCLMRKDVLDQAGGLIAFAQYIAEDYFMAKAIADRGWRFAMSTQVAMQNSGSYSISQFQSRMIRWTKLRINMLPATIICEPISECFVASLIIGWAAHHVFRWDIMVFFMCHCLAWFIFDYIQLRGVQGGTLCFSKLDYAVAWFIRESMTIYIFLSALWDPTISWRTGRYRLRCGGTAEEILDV
- Method Description: GCS enzyme inhibition assay (A549 cell lysate, NBD C6-ceramide, HPLC fluorescence)
- Details: inhibitory activity against GCS, 37° C., 90 minutes
Scale type: logarithmic (base 10). Underlying IC50 unit: pM.

Query :: // lookup log10 IC50 for CCCCc1ccc(-c2ccc3c(c2)OCC(C)(C)C3NC(=O)O[C@@H]2CN3CCC2CC3)cc1 (stereo partly shown)
Result :: 2.59

Query :: // lookup log10 IC50 for Cc1ccc(-c2ccc3c(c2)OCC(C)(C)C3NC(=O)O[C@@H]2CN3CCC2CC3)c(Cl)c1 (stereo partly shown)
Result :: 3.20

Query :: // lookup log10 IC50 for CC1(C)COc2cc(-c3cccc(CC#N)c3)ccc2C1NC(=O)O[C@@H]1CN2CCC1CC2 (stereo partly shown)
Result :: 2.81

Query :: // lookup log10 IC50 for COc1cccc(F)c1-c1ccc2c(c1)OCC(C)(C)C2NC(=O)O[C@@H]1CN2CCC1CC2 (stereo partly shown)
Result :: 2.98

Query :: // lookup log10 IC50 for N#Cc1ccc(-c2ccc3c(c2)C(NC(=O)O[C@@H]2CN4CCC2CC4)CCO3)cc1 (stereo partly shown)
Result :: 3.85

Query :: // lookup log10 IC50 for CC(C)c1ccc(-c2ccc3c(c2)OCCC3NC(=O)O[C@@H]2CN3CCC2CC3)cc1 (stereo partly shown)
Result :: 3.69

Query :: // lookup log10 IC50 for CC1(C)COc2cc(-c3ccc(CC#N)cc3)ccc2C1NC(=O)O[C@@H]1CN2CCC1CC2 (stereo partly shown)
Result :: 2.79

Query :: // lookup log10 IC50 for COc1ccccc1-c1ccc2c(c1)OCC(C)(C)C2NC(=O)O[C@@H]1CN2CCC1CC2 (stereo partly shown)
Result :: 2.72

Query :: // lookup log10 IC50 for Cc1ccccc1-c1ccc2c(c1)OCC(C)(C)C2NC(=O)O[C@@H]1CN2CCC1CC2 (stereo partly shown)
Result :: 2.89

Query :: // lookup log10 IC50 for CC1(NC(=O)O[C@@H]2CN3CCC2CC3)CCOc2cc(-c3cccc(Cl)c3)ccc21 (stereo partly shown)
Result :: 2.90

Query :: // lookup log10 IC50 for CC1(C)COc2cc(-c3ccc4c(c3)OCO4)ccc2C1NC(=O)O[C@@H]1CN2CCC1CC2 (stereo partly shown)
Result :: 2.59

Query :: // lookup log10 IC50 for O=C(NC1CCOc2cc(-c3cccc(-c4ccccc4)c3)ccc21)O[C@@H]1CN2CCC1CC2 (stereo partly shown)
Result :: 2.48

Query :: // lookup log10 IC50 for CN1CCOc2cc(-c3ccc4c(c3)OCC(C)(C)C4NC(=O)O[C@@H]3CN4CCC3CC4)ccc21 (stereo partly shown)
Result :: 2.82

Query :: // lookup log10 IC50 for COCCOc1ccc(-c2ccc3c(c2)OCC(C)(C)C3NC(=O)O[C@@H]2CN3CCC2CC3)cc1 (stereo partly shown)
Result :: 3.29

Query :: // lookup log10 IC50 for O=C(NC1CCOc2cc(-c3ccc4cc[nH]c4c3)ccc21)O[C@@H]1CN2CCC1CC2 (stereo partly shown)
Result :: 3.62

Query :: // lookup log10 IC50 for Cn1ncc2c(-c3ccc4c(c3)OCCC4NC(=O)O[C@@H]3CN4CCC3CC4)cccc21 (stereo partly shown)
Result :: 3.01

---

- Target Or System: glucosylceramide synthase (GCS) (Homo sapiens, UniProt Q16739)
- Construct: The obtained supernatant was used
- Method Description: GCS enzyme inhibition assay (A549 cell lysate, NBD C6-ceramide, HPLC fluorescence)
- Details: inhibitory activity against GCS, 37° C., 90 minutes
Test Readout: IC50 (nM)
Only the number, expressed in nM, is required.

Query :: // lookup IC50 for CC1(C)COc2cc(-c3ccc(C(F)(F)F)cc3)ccc2C1NC(=O)O[C@@H]1CN2CCC1CC2 (stereo partly shown) [Example 211]
Result :: 0.71

Query :: // lookup IC50 for CC1(NC(=O)O[C@@H]2CN3CCC2CC3)CCOc2cc(-c3cccc(OC(F)(F)F)c3)ccc21 (stereo partly shown) [Example 306]
Result :: 0.5

Query :: // lookup IC50 for CC(C)Oc1ccc(-c2ccc3c(c2)OCC(C)(C)C3NC(=O)O[C@@H]2CN3CCC2CC3)cn1 (stereo partly shown) [Example 258]
Result :: 0.45

Query :: // lookup IC50 for CC1(C)COc2cc(-c3ccc(F)c(C(F)(F)F)c3)ccc2C1NC(=O)O[C@@H]1CN2CCC1CC2 (stereo partly shown) [Example 175]
Result :: 0.71

Query :: // lookup IC50 for CCOc1cccc(-c2ccc3c(c2)OCC(C)(C)C3NC(=O)O[C@@H]2CN3CCC2CC3)c1 (stereo partly shown) [Example 158]
Result :: 0.42

Query :: // lookup IC50 for COc1ccc(F)cc1-c1ccc2c(c1)OCC(C)(C)C2NC(=O)O[C@@H]1CN2CCC1CC2 (stereo partly shown) [Example 252]
Result :: 0.54

Query :: // lookup IC50 for CC1(C)COc2cc(-c3cccc4cn[nH]c34)ccc2C1NC(=O)O[C@@H]1CN2CCC1CC2 (stereo partly shown) [Example 178]
Result :: 1.14

---

Kindly state log10 of IC50 for each of the entries shown.
- Target Or System: glucosylceramide synthase (GCS) (Homo sapiens, UniProt Q16739)
- Construct: The obtained supernatant was used
- Method Description: GCS enzyme inhibition assay (A549 cell lysate, NBD C6-ceramide, HPLC fluorescence)
- Details: inhibitory activity against GCS, 37° C., 90 minutes
Scale type: logarithmic (base 10). Underlying IC50 unit: nM.

Query :: // lookup log10 of IC50 for O=C(NC1CCOc2cc(-c3cccc(S(=O)(=O)N4CCCC4)c3)ccc21)O[C@@H]1CN2CCC1CC2 (stereo partly shown) [Example 60]
Result :: 0.38

Query :: // lookup log10 of IC50 for CC(C)Oc1cc(F)cc(-c2ccc3c(c2)OCC(C)(C)C3NC(=O)O[C@@H]2CN3CCC2CC3)c1 (stereo partly shown) [Example 136]
Result :: -0.21

Query :: // lookup log10 of IC50 for CC1(C)COc2cc(-c3cccc(Cl)c3)c(F)cc2C1NC(=O)O[C@@H]1CN2CCC1CC2 (stereo partly shown) [Example 332]
Result :: -0.41

Query :: // lookup log10 of IC50 for O=C(NC1CCOc2cc(-c3ccc4ccncc4c3)ccc21)O[C@@H]1CN2CCC1CC2 (stereo partly shown) [Example 57]
Result :: 0.55

Query :: // lookup log10 of IC50 for CC1(C)COc2cc(-c3ccccc3)ccc2C1NC(=O)O[C@@H]1CN2CCC1CC2 (stereo partly shown) [Example 264]
Result :: -0.46

Query :: // lookup log10 of IC50 for CC1(C)COc2cc(-c3cccc4c3oc3ccccc34)ccc2C1NC(=O)O[C@@H]1CN2CCC1CC2 (stereo partly shown) [Example 290]
Result :: 0.19

Query :: // lookup log10 of IC50 for COCOc1ccccc1-c1ccc2c(c1)OCC(C)(C)C2NC(=O)O[C@@H]1CN2CCC1CC2 (stereo partly shown) [Example 106]
Result :: 0.07

Query :: // lookup log10 of IC50 for CC1(C)COc2cc(-c3ccc4c(c3)CCCO4)ccc2C1NC(=O)O[C@@H]1CN2CCC1CC2 (stereo partly shown) [Example 163]
Result :: -0.23

Query :: // lookup log10 of IC50 for CCOc1ccccc1-c1ccc2c(c1)OCCC2NC(=O)O[C@@H]1CN2CCC1CC2 (stereo partly shown) [Example 20]
Result :: 0.46

Query :: // lookup log10 of IC50 for COc1c(C)cc(-c2ccc3c(c2)OCC(C)(C)C3NC(=O)O[C@@H]2CN3CCC2CC3)cc1C (stereo partly shown) [Example 255]
Result :: 0.08

Query :: // lookup log10 of IC50 for Cc1cc(-c2ccc3c(c2)OCC(C)(C)C3NC(=O)O[C@@H]2CN3CCC2CC3)ccc1F (stereo partly shown) [Example 229]
Result :: -0.15

Query :: // lookup log10 of IC50 for CC1(C)COc2cc(-c3cccc(Cl)c3Cl)ccc2C1NC(=O)O[C@@H]1CN2CCC1CC2 (stereo partly shown) [Example 235]
Result :: -0.12

Query :: // lookup log10 of IC50 for CC1(C)COc2cc(-c3cnn(Cc4ccccc4)c3)ccc2C1NC(=O)O[C@@H]1CN2CCC1CC2 (stereo partly shown) [Example 180]
Result :: -0.36

Query :: // lookup log10 of IC50 for CC1(C)COc2cc(-c3cccc(F)c3Cl)ccc2C1NC(=O)O[C@@H]1CN2CCC1CC2 (stereo partly shown) [Example 237]
Result :: -0.20

Query :: // lookup log10 of IC50 for CC1(C)COc2cc(-c3ccc(C#N)cc3)ccc2C1NC(=O)O[C@@H]1CN2CCC1CC2 (stereo partly shown) [Example 247]
Result :: -0.24

Query :: // lookup log10 of IC50 for O=C(NC1CCOc2cc(-c3ccc(F)cc3)ccc21)O[C@@H]1CN2CCC1CC2 (stereo partly shown) [Example 13]
Result :: 0.93

Query :: // lookup log10 of IC50 for O=C(NC1CCOc2ccc(-c3ccccc3Cl)cc21)O[C@@H]1CN2CCC1CC2 (stereo partly shown) [Example 90]
Result :: 0.63

Query :: // lookup log10 of IC50 for O=C(NC1CCOc2cc(-c3cc(Cl)cc(Cl)c3)ccc21)O[C@@H]1CN2CCC1CC2 (stereo partly shown) [Example 29]
Result :: 0.36

Query :: // lookup log10 of IC50 for COc1ncccc1-c1ccc2c(c1)OCC(C)(C)C2NC(=O)O[C@@H]1CN2CCC1CC2 (stereo partly shown) [Example 245]
Result :: -0.02

Query :: // lookup log10 of IC50 for CC1(C)COc2cc(-c3ccccc3F)ccc2C1NC(=O)O[C@@H]1CN2CCC1CC2 (stereo partly shown) [Example 156]
Result :: -0.54

Query :: // lookup log10 of IC50 for COc1ccc(Cl)c(-c2ccc3c(c2)OCC(C)(C)C3NC(=O)O[C@@H]2CN3CCC2CC3)c1 (stereo partly shown) [Example 153]
Result :: -0.32

Query :: // lookup log10 of IC50 for Cn1ncc2c(-c3ccc4c(c3)OCC(C)(C)C4NC(=O)O[C@@H]3CN4CCC3CC4)cccc21 (stereo partly shown) [Example 159]
Result :: -0.24

Query :: // lookup log10 of IC50 for O=C(NC1CCOc2cc(-c3cc(Cl)ccc3Cl)ccc21)O[C@@H]1CN2CCC1CC2 (stereo partly shown) [Example 27]
Result :: -0.12

Query :: // lookup log10 of IC50 for CC(C)c1cccc(-c2cc3c(cc2F)C(NC(=O)O[C@@H]2CN4CCC2CC4)C(C)(C)CO3)c1 (stereo partly shown) [Example 339]
Result :: -0.21

Query :: // lookup log10 of IC50 for Cc1cccc(-c2ccc3c(c2)OCC(C)(C)C3NC(=O)O[C@@H]2CN3CCC2CC3)c1 (stereo partly shown) [Example 268]
Result :: -0.21

Query :: // lookup log10 of IC50 for CC(C)COc1ccc(-c2ccc3c(c2)OCC(C)(C)C3NC(=O)O[C@@H]2CN3CCC2CC3)cc1 (stereo partly shown) [Example 260]
Result :: -0.29

Query :: // lookup log10 of IC50 for O=C(NC1CCOc2cc(-c3cccc(C(F)(F)F)c3)ccc21)O[C@@H]1CN2CCC1CC2 (stereo partly shown) [Example 3]
Result :: -0.15

Query :: // lookup log10 of IC50 for CCc1ccc(-c2cc3c(cc2OC)C(NC(=O)O[C@@H]2CN4CCC2CC4)C(C)(C)CO3)cc1 (stereo partly shown) [Example 353]
Result :: -0.48

Query :: // lookup log10 of IC50 for CCOc1ccc(-c2cc3c(cc2OC)C(NC(=O)O[C@@H]2CN4CCC2CC4)C(C)(C)CO3)cc1 (stereo partly shown) [Example 356]
Result :: -0.32

Query :: // lookup log10 of IC50 for O=C(NC1CCOc2ccc(-c3ccc(OC(F)(F)F)cc3)cc21)O[C@@H]1CN2CCC1CC2 (stereo partly shown) [Example 94]
Result :: 0.91

Query :: // lookup log10 of IC50 for Cc1ccc(-c2ccc3c(c2)OCC(C)(C)C3NC(=O)O[C@@H]2CN3CCC2CC3)c(F)c1 (stereo partly shown) [Example 225]
Result :: -0.35
